Tested on: SW-620 colon
Assay: NCI tumour cell line growth inhibition, 48 h

compound | TGI
CC[C@H](Nc1nc(N)nc(C)c1C#N)c1nc2cccc(NCc3ccc(C(=O)NO)cc3)c2c(=O)n1-c1ccccc1 | 3.92 µM
C=C1CC[C@@H](Br)C(C)(C)[C@]12CCC(C)(O)C(Cl)C2 (some centres not stated) | 27.2 µM
C=C1CCCCCCCCCCC12SCCC2CCCCSC (configuration not stated) | 68.9 µM
CC1(C)CCc2cc3c(cc2O1)OCC1c2cc4c(cc2OC31)OCO4 (configuration not stated) | > 100 µM
O=[N+]([O-])c1ccc2c(N3CCC(CCCC4CCN(c5ncnc6cc([N+](=O)[O-])ccc56)CC4)CC3)ncnc2c1 | > 100 µM
O=P1(c2ccccc2)c2ccccc2CCc2ccccc21 | > 100 µM
CSCCC(N)P(C)(=O)O (configuration not stated) | > 100 µM
Cc1c(-c2nnc(-c3ccc(Cl)cc3)o2)c(=O)n(-c2ccccc2)n1C | > 100 µM
O=C(c1ccco1)c1nc2cc(F)ccc2[n+]([O-])c1C(F)(F)F | > 100 µM
CC(=O)OC[C@@H]1[C@H]2CC[C@]3(C)[C@@H](OC(C)=O)CC[C@H]3[C@@H]2CC[C@H]1C1(C)SCCS1 | > 25 µM
CCC(=O)N1NC(=O)C(CC)(CC)C1=O | > 100 µM
O=C(Nc1cccc(Oc2nnc(Cl)c3ccccc23)c1)Nc1ccc(Cl)c(C(F)(F)F)c1 | 4.9 µM
CCOC(=O)C1=C(C)OC(=O)[C@@]2(OC)C=C(Cl)[C@@]12C | > 100 µM
Cc1cccc(/C=C2\CCCc3ccccc3C2=O)c1 | 30.7 µM
O=C(c1ccc2ccccc2c1)N(Cc1cccnc1)C(=S)N(Cc1cccnc1)C(=O)c1ccc2ccccc2c1 | > 100 µM
COc1cc(=O)n2c3ccccc3n(C)c2c1C#N | > 100 µM
O=S(=O)(O)c1ccc(-c2nnc(-c3ccccn3)nc2-c2ccc(S(=O)(=O)O)o2)o1 | > 100 µM
C[C@@H]1CC[C@@H]2[C@@H]1[C@H](OC(=O)/C=C/c1ccccc1)[C@]1(C3CCCCC3)C[C@@H](NC(=O)CO)[C@@]2(C)O1 | 34.1 µM
Cn1c(O)c(C(/C=C/c2ccccc2)=NCCN=C(/C=C/c2ccccc2)c2c(O)n(C)c(=O)n(C)c2=O)c(=O)n(C)c1=O | 34.2 µM
CC/C(=C(/CC)c1ccc([O-])cc1)c1ccc([O-])cc1.CC/C(=C(\CC)c1ccc([O-])cc1)c1ccc([O-])cc1.O=C([CH-]C(=O)c1ccccc1)c1ccccc1.O=C([CH-]C(=O)c1ccccc1)c1ccccc1.O=C([CH-]C(=O)c1ccccc1)c1ccccc1.O=C([CH-]C(=O)c1ccccc1)c1ccccc1.[Ti+4].[Ti+4] | 51.6 µM
CCOC(=O)[C@H]1Nc2c(cccc2[N+](=O)[O-])[C@H]2OCC[C@@H]12 | > 100 µM
CN(C)c1ncnc2c1nnn2C1OC(CO)C(O)C1O (configuration not stated) | > 100 µM
Cn1cc(C2=C(c3cccnc3)C(=O)NC2=O)c2ccccc21 | > 25 µM
O=C(Nc1ccc(CN2CCOCC2)cc1)c1[nH]ncc1Nc1ncnc2sccc12 | > 100 µM
COc1ccc2c(c1)[n+]([O-])c(-c1ccccc1)c(N)[n+]2[O-] | > 100 µM
CCOc1cc2c(cc1O)/C(=N\O)C[C@@H]1[C@@H]2CC[C@]2(C)[C@@H](O)CC[C@@H]12 | > 100 µM
COc1ccc(C(=O)C(C(=O)C(=O)Nc2ccc(Cl)c(Cl)c2)c2ccc(OC)cc2)cc1 (configuration not stated) | > 100 µM
Cc1ccc(Nc2n[nH]c(=S)s2)cc1 | > 100 µM
O=C(NNc1ccnc2cc(Cl)ccc12)/C(=C\c1ccccc1Cl)NC(=O)c1ccccc1 | > 100 µM
Cc1c(C(=O)C/C(=N/NC(=O)C[n+]2ccccc2)C(=O)Nc2ccccc2)[n+](=O)c2ccccc2n1O | > 100 µM
O=C(O)C1=C(C(=O)O)N(c2ccncc2)C(c2ccco2)=CC1c1ccccc1[N+](=O)[O-] (configuration not stated) | > 27.1 µM
O=c1ssc(Cl)c1Nc1c(Cl)ssc1=O | > 54.4 µM
O=C(c1ccccc1)c1ccc(OCCOc2ccc(Nc3ccccc3)cc2)cc1 | > 100 µM
O=[As](O)(O)c1ccc(N=Nc2ccc([As](=O)(O)O)cc2)cc1 | > 100 µM
O=C(CCl)NC(Cc1ccc(F)cc1)C(=O)O (configuration not stated) | > 100 µM
CC(=O)O[C@H](C[C@H](C(C)C)N(C)C(=O)[C@@H](NC(=O)[C@H]1CCCCN1C)C(C)C)c1nc(C(=O)N[C@@H](Cc2ccccc2)C[C@H](C)C(=O)O)c(C(C)C)s1 | > 33.3 µM
CCOC(=O)Nc1cc2c(c(N)n1)N=C(c1ccccc1)[C@H](C)N2 | > 100 µM
